Experiment: yeast display, Sf9 membrane polyspecificity reagent, FACS + sequencing; frameworks hold sequencing errors
READOUT TYPE: polyreactivity (PSR sort gate)

QVQLVESGGGLVPAGGSLRLSCAASGSTFVRYVMGWYRQAPGKERELVAAISRRGGSTYYADSVKGRCTISRDIAKNTVYLQMNSLKPEDTAVYYCADSRGTRTTGYSSYDRFGYWGQGTQVTVSS :: high polyreactivity
QVQLVESGGGLVQAGGNLRLSCAASGLIFWYNAMGWYRQAPGKERELVAAINWSGDSTYYADSVKGRFTISRDNAKNTVYLQMNSLKPEDTAVYYCAATEQSYGYDYWGQGTQVTVSS :: low polyreactivity
QVQLVESGGGLVQAGGSLRLSCAASGSTFGYNTMGWYRQAPGKERELVASITGRGGSTYYADSVKGRFTSSRDNAKNTVYLQMNSLKPEDTAVYYCAAAWKAYRRYGYWGQGTQVTVSS :: high polyreactivity
QVQLVESGGGLVQAGGSLRLSCAASGRIFTWNAMGWYRQAPGKERDLVARISSGTRTNYADSVKGRFTISRDNAKNTVYLQMNSLKPEDTAVYYCAAQSRPPFVKQYWWQRDYWGQGTQVTVSS :: high polyreactivity
QVQLLESGGGLVQAGGSLRLSCAASGSIFSYNAMGWYRQAPGTERELVAAITSGDSTNYADSVKGRFTISRDNAKNTVYLQMNSLKPEDTAVYYCAADPVLPAFGYVGTSLGYYWGQGTQVTVSS :: low polyreactivity
QVQLVESGGGLDQAGGSLRLSCAASGSTFYYYAMGWYRQAPGKERELVASISDDGSTNYADSVKGRFTISRDNAKNTVYLQMNSLKPEDTAVYYCAAVWWHQFGSAWYQMGYWGQGTQVTVSS :: low polyreactivity
QVQLVESGGGLVQAGGSLRLSCAASGFIFYYYAMGWYRQAPGKERELVAAITSSGGSTYYADSVKGRFTISRDNAKNTVYLQKNSLKPEDTAVYYCAAYYHGRMDYWGQGTQVTVSS :: high polyreactivity
QVHLVESCGALVHAGGSLRLSCAASGSIFRGNAMGWYRQAPWKERELVAAITGSGGNTYYADSVKGRFTISRDNAKNTVYLQMNSLKPEDTAVYYCNADGWNTYIGPRRYSYDYWGQGTQVTISS :: low polyreactivity
QVQLVESGGGLVQAGGSLRLSCAASGSIFSYAMGWYRQAPGKERELVAAISRRGGRTYYADSVKGRFTISRDNEKYTVYLQMNSLKPEDTAVYYCAASGRNRKDGLYEYYYWGQGTQVTVSS :: high polyreactivity
QDQLVESCGGLVQAGGSLRLSCAASGHIFIYYAMGWYRQAPWKERELVAVISGSGGRTYYADSVKGRFTISRDYAKNTVSLQMNSLKPEDTAVYYCAAAVRYYPHYDSWGQGTQVNVSS :: low polyreactivity
QVQLVESGGGLVQAGGSLRLSCAASGGTFGYNAMGWYRQAPGKERELVAAISYSGTSTYYADSVKGRFTISRDNAKNTVYLQMNSLKPEVTAVYYCNAGRYIKMGDWGQGSQVTVSS :: high polyreactivity
QVQLVDTGGGLVQAGGSLRLSCAASGLTIYGNAMGWSRQAPGKERELVAAISSSGGTTYYADSVKGRFTISRDNSKNTVYLQMNSLKPEDTAVYYCAARPSGGYESTRTRDYWGQGTQVTLSS :: low polyreactivity
QVQLVESGGGLVQAGGSLRLSCAASGGTFRNNAMGWYRQAPGKERELVAAISWSGGRTYYADSVKGRFTISRDNAKNTVYLQMNSLKPEDTAVYYCAASYSGRQDRYPHYDYWGQGTQVTVSS :: low polyreactivity
QVQLVESGGGLVQAGGSLRLSCAASGSIFPSYAMGWYRQAPGKERELVAAISKSGGRTKYADSVKGRFTISRDNAKNTVYLQMNSLKPEDTAVYYCAAYAYFHRREGYWGQGTQVTVSS :: high polyreactivity
QVQLVESGGGLVQAGGSLRLSCAASGSTFKRNAMGWSRQAPGKEWELVAAITFSGATTYYADSVKGRFTISRDNAKNTVYLQMNSLKPEDTAVYYCATKAYTTGRYYWGQGTQVTVSS :: high polyreactivity
QVQLVESGGGLVQAGGSLRLSCAASGSIFAKYTMGWYRQAPGKERELVAAITRSGTSTRYADSVKGRFTISRDNAKNTVYLQMNSLKPEDTAVYYCAASLYSWGQGTQVTVSS :: high polyreactivity
QVQLVESVGGLVQAGGSLRLSCAASGFTFVSNAMGWDRQEPGKERELVAAISTGGRTYYADSVKGRFTISRDNAKNTVYLQMNSLKTEDTAFYYCNARYGLRYVRYGEMDYWGQGTQVTVSS :: high polyreactivity
QVQLVESGGGLVQAGGSLRLSCAASGFIFYRNPMGWYRQAPGKEREFVAAIRGRGGATYYADSVKGRFTISRDNAKITVYLQMNSLKREDTAVYYCAADTRPGYSGFEYWGQGTQVTVSS :: high polyreactivity
QVQLVESGGGLVQAGGSLRLSCAASGSIFIPYAMGWYRQAPGKERDLVAAIRYSGASTYYADSVKGRFTISRDNAKNTVFLQMNSLKPEDTAVYYCAARVVDQEVGRPYYYWGQGTQVTVSS :: high polyreactivity
QVQLVESGGGLVQAGGSLRLSCAASGRIFASYAMGWYRQAPGKERELVAAISGSGASTYYADSVKGRFTISRDNAKNTVYLQMNSLKPEDTAVYYCAAKATSEGDEYWGQGTQVTVSS :: high polyreactivity
QVQLVETGGGLVQAGGSLRLSCAASGRTFGHNDMGWSRQAPGKERELVATISSDGSTNYADSVKGRFTISRDNAKNTVYLQMNSLKPEDTAVYYCAKVYQYVEYDYWGQGTQVTVSS :: low polyreactivity
